- targetUnderTest: Bcl-2-related protein A1 (Mus musculus) (UniProt Q07440)
- methodSummary: off-target activity on mouse Bfl-1 – biochemical, counter-screen for UBC13 polyubiquitination inhibitor project, SAR follow-up (AID 504685)
- measurementParameters: Bfl-1 counterscreen for UBC13 inhibitors
Active and inactive are the calls of the source. The rule behind the calls is not given here.
Parameter call: string, one of y (active), n (inactive)

[in] Called result for "O=C(CCCCCN1C(=O)c2cccc3cccc(c23)C1=O)NCc1cccnc1"
[out] n

[in] Please answer likewise for Cc1ccc(OCC(O)CN2CCN(CCN3C(=O)c4cccc5cccc(c45)C3=O)CC2)c(C)c1 (stereo not given)
[out] y

[in] Same question for "CCOc1ccc2nc(N(CCCN(C)C)C(=O)c3ccc(C(=O)c4ccccc4)cc3)sc2c1" please.
[out] n

[in] Same question, "Cc1ccc(NC(=O)C2CCN(c3ncnc4c3nc3n4CCCCC3)CC2)cc1Cl" this time
[out] n

[in] // next record "N#Cc1ccccc1Cn1c(=O)n(CCCC(=O)NC2CCN(Cc3ccccc3)CC2)c(=O)c2ccccc21"
[out] n

* * *

- targetUnderTest: Bcl-2-related protein A1 (Mus musculus) (UniProt Q07440)
- methodSummary: off-target activity on mouse Bfl-1 – biochemical, counter-screen for UBC13 polyubiquitination inhibitor project, SAR follow-up (AID 504685)
- measurementParameters: Bfl-1 counterscreen for UBC13 inhibitors
Active and inactive are the calls of the source. No rule for the calls is given here.
Form entry, call: pick from active, inactive

[in] What did the test return for Cc1ccc(C)c(CN2CCC(CNC(=O)C3CCCN(c4ncnc5c4nc4n5CCCCC4)C3)CC2)c1 (stereo not given) ?
[out] inactive

[in] Now try O=C1c2cccc3cccc(c23)C(=O)N1CCN1CCN(CC(O)COc2ccc3c(c2)OCO3)CC1 (stereo not given) .
[out] inactive

[in] Please give the result for CCc1ccc(OCC(O)CN2CCC(CN3C(=O)c4cccc5cccc(c45)C3=O)CC2)cc1 (stereo not given) too.
[out] inactive

[in] Also Cc1cccc(OCC(O)CN2CCN(CCN3C(=O)c4cccc5cccc(c45)C3=O)CC2)c1C (stereo not given) ?
[out] inactive

[in] Again, but for "CN(C)CCCN(C(=O)c1ccc(S(=O)(=O)N2CCc3ccccc3C2)cc1)c1nc2ccc(F)cc2s1"
[out] active

* * *

- targetUnderTest: Bcl-2-related protein A1 (Mus musculus)
- methodSummary: off-target activity on mouse Bfl-1 – biochemical, counter-screen for UBC13 polyubiquitination inhibitor project, SAR follow-up (AID 504685)
- measurementParameters: Bfl-1 counterscreen for UBC13 inhibitors
The source made the active and inactive calls. How the calls were made is not given here.
# output must be one of 1 for active, -1 for inactive

[in] Hi, sorry to bother you, what did the test record for "CCOc1cccc2sc(N(CCCN(C)C)C(=O)c3ccc(S(=O)(=O)N4CCc5ccccc5C4)cc3)nc12" ?
[out] -1

[in] Next up: O=C(C1COc2ccccc2O1)N1CCN(CCN2C(=O)c3cccc4cccc(c34)C2=O)CC1 (centres undefined)
[out] -1

[in] Do the same for O=C1c2cccc3cccc(c23)C(=O)N1CC1CCN(CC(O)COCc2ccc3c(c2)OCO3)CC1 (centres undefined) please
[out] 1

[in] Ok, now "O=C(CCCn1c(=O)c2ccccc2n(Cc2cccc([N+](=O)[O-])c2)c1=O)NC1CCN(Cc2ccccc2)CC1"
[out] -1

[in] Another molecule to look at: "Cc1cc(C)c2sc(N(CCCN(C)C)C(=O)c3ccc(S(=O)(=O)N4CCc5ccccc5C4)cc3)nc2c1"
[out] -1

[in] Same question for "O=C(CCCCCN1C(=O)c2cccc([N+](=O)[O-])c2C1=O)NCc1ccccc1" please.
[out] -1

[in] Moving on to Cc1ccc2c(c1)C1CN(C)CCC1N2C(=O)CCCN1C(=O)c2cccc3cccc(c23)C1=O (centres undefined)
[out] -1

[in] Repeat with "COc1ccc2sc(N(CCCN(C)C)C(=O)c3ccc(S(=O)(=O)N4CCc5ccccc5C4)cc3)nc2c1"
[out] -1

[in] Would you mind doing "Cc1ccccc1NC(=S)NC(=O)CCCCCN1C(=O)c2ccccc2C1=O" as well?
[out] -1

* * *

Provide the recorded IC50 for the entries that follow.
- targetUnderTest: Bcl-2-related protein A1 (Mus musculus)
- methodSummary: off-target activity on mouse Bfl-1 – biochemical, counter-screen for UBC13 polyubiquitination inhibitor project, SAR follow-up (AID 504685)
- measurementParameters: Bfl-1 counterscreen for UBC13 inhibitors
Calls of active or inactive are those of the source. How the calls were made is not given here.

[in] Which IC50 value is on record for "O=C(CCCCCN1C(=O)c2ccccc2C1=O)NCc1ccco1" ?
[out] > 100 µM (inactive)

[in] Try this compound too: "Cc1nc2ccccc2c(=O)n1NC(=O)c1ccc(OC(F)F)cc1"
[out] > 100 µM (inactive)

[in] Try this compound too: O=C1c2cccc3cccc(c23)C(=O)N1CCN1CCN(CC(O)COc2ccc(C3CCCCC3)cc2)CC1 (centres undefined)
[out] > 100 µM (inactive)

[in] Entry COC(=O)c1ccc(OCC(O)CN2CCN(CCN3C(=O)c4cccc5cccc(c45)C3=O)CC2)cc1 (centres undefined) please
[out] 56.9 µM

[in] Same thing, different compound: CC1CC(C)CN(C(=O)C2CCN(c3ncnc4c3nc3n4CCCCC3)CC2)C1 (centres undefined)
[out] > 100 µM (inactive)

[in] // query: "O=C(C1CCN(c2ncnc3c2nc2n3CCCCC2)CC1)N1CCOCC1"
[out] > 100 µM (inactive)

[in] Do the same for "COc1ccc(CCNC(=O)CCCCCN2C(=O)c3ccccc3C2=O)cc1OC" please
[out] > 100 µM (inactive)

[in] Now this one: "Cc1cc(NS(=O)(=O)c2ccc(NC(=O)CCCCCN3C(=O)c4ccccc4C3=O)cc2)nc(C)n1"
[out] > 100 µM (inactive)

[in] Query "CCOc1cccc2sc(N(CCCN(C)C)C(=O)c3ccc(S(=O)(=O)N(CC)Cc4ccccc4)cc3)nc12" next
[out] 86.6 µM

[in] Again, but for "O=C(NCCCN1CCCCC1)C1CCN(c2ncnc3c2nc2n3CCCCC2)CC1"
[out] > 100 µM (inactive)

[in] Now consider "O=C(CCCCCN1C(=O)c2ccccc2C1=O)Nc1nc(C2CC2)cs1" and answer again.
[out] > 100 µM (inactive)

[in] Please answer likewise for O=C1c2cccc3cccc(c23)C(=O)N1CC1CCN(CC(O)COc2ccc3ccccc3c2)CC1 (centres undefined)
[out] 68.5 µM

[in] Thanks! And "COc1ccc(NC(=O)CCCCCN2C(=O)c3cccc([N+](=O)[O-])c3C2=O)cc1" ?
[out] > 100 µM (inactive)

[in] CC(=O)Nc1ccc(OCC(O)CN2CCN(CCN3C(=O)c4cccc5cccc(c45)C3=O)CC2)cc1 (centres undefined) , same question.
[out] > 100 µM (inactive)

[in] Continue with "CCOc1ccc(NC(=O)Cn2c(=O)n(CCCC(=O)NC3CCN(Cc4ccccc4)CC3)c(=O)c3ccccc32)cc1"
[out] > 100 µM (inactive)

[in] Follow-up entry: "CN(C)CCCN(C(=O)c1ccc(C(=O)c2ccccc2)cc1)c1nc2cc3c(cc2s1)OCCO3"
[out] 85.3 µM

[in] How about "COc1cccc2sc(N(CCCN(C)C)C(=O)c3ccc(S(=O)(=O)N4CCc5ccccc5C4)cc3)nc12" ?
[out] 24.1 µM

[in] Next record, please: "CCCN1CCN(C(=O)C2CCN(c3ncnc4c3nc3n4CCCCC3)CC2)CC1"
[out] > 100 µM (inactive)

[in] Please answer likewise for "Cc1cc(C)c2sc(N(CCCN(C)C)C(=O)c3ccc(S(=O)(=O)N(C)Cc4ccccc4)cc3)nc2c1"
[out] > 100 µM (inactive)
